Data provenance is patent US20250011456A1.

Target: T1, Recombinant Human CD14/His Protein (B294801) (human, UniProt P08571 20-352, limits assumed)
T1 construct: Bought His-tagged recombinant human CD14; also called recombinant human CD14 antigen; CD14 antigen; not shown: histidine tag
T1 sequence (looked up): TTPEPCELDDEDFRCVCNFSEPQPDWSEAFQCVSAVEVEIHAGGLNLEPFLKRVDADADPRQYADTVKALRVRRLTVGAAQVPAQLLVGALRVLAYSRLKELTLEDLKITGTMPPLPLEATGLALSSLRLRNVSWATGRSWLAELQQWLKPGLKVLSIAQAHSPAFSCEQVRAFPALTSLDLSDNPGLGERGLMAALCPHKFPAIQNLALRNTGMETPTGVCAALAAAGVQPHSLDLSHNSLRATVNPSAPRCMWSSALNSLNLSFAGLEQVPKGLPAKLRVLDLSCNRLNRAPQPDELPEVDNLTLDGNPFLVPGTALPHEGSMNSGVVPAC
Experiment: SPR (Biacore 8K), antibody captured (1 ug/mL) on Protein A chip, CD14-His analyte 0.1953125-25 nM, 1:1 binding
Exercise: for every item that follows, state its recorded koff.

Which koff value belongs to Antibody No. D6DD3D001 (HU1127-mVH/mVL) (antibody, human IgG1, kappa, V domains shown, Mouse variable domains of Atibuclimab on human IgG1 constant regions (hFc, 146 kDa); also called Original IgG1 antibody; mouse antibody) VH: DVQLQQSGPGLVKPSQSLSLTCTVTGYSITSDSAWNWIRQFPGNRLEWMGYISYSGSTSYNPSLKSRISITRDTSKNQFFLQLNSVTTEDTATYYCVRGLRFAYWGQGTLVTVSS VL: DIVLTQSPASLAVSLGQRATISCRASESVDSYVNSFLHWYQQKPGQPPKLLIYRASNLQSGIPARFSGSGSRTDFTLTINPVEADDVATYYCQQSNEDPYTFGGGTKLEIKR ? 0.00108 s⁻¹

Which koff value belongs to Antibody No. MPDDAD002 (HU1127-hVH3/hVL3-2) (antibody, V domains shown, D6DD3D014 with the light chain PTM site NS (VL amino acids 34, 35) changed to SS; Tested as a recombinant antibody with hFc tag, 144 kDa) VH: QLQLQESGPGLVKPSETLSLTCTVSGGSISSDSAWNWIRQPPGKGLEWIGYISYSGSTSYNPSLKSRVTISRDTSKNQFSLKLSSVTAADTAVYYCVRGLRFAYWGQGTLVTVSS VL: DIQLTQSPSSLSASVGDRVTITCRASESVDSYVSSFLHWYQQKPGKAPKLLIYRASNLQSGVPSRFSGSGSRTDFTLTISSLQPEDVATYYCQQSNEDPYTFGQGTKLEIK ? 0.00362 s⁻¹

Which koff value belongs to Antibody No. MPDDAD004 (HU1127-hVH3/hVL3-4) (antibody, V domains shown, D6DD3D014 with the light chain PTM site NS (VL amino acids 34, 35) changed to NA; Tested as a recombinant antibody with hFc tag, 144 kDa) VH: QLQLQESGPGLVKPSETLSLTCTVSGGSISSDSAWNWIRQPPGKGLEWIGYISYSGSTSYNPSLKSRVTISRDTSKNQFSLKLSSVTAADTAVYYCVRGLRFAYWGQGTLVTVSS VL: DIQLTQSPSSLSASVGDRVTITCRASESVDSYVNAFLHWYQQKPGKAPKLLIYRASNLQSGVPSRFSGSGSRTDFTLTISSLQPEDVATYYCQQSNEDPYTFGQGTKLEIK ? 0.0046 s⁻¹
